# ASSAYED_TARGET: T1, c-Met-Fc chimera protein (UniProt P08581 25-932, limits assumed)
# T1 construct: Captured on the SPR chip by an anti-IgG antibody; not shown: Fc part
# T1 sequence (P08581 25-932 limits assumed, change not shown): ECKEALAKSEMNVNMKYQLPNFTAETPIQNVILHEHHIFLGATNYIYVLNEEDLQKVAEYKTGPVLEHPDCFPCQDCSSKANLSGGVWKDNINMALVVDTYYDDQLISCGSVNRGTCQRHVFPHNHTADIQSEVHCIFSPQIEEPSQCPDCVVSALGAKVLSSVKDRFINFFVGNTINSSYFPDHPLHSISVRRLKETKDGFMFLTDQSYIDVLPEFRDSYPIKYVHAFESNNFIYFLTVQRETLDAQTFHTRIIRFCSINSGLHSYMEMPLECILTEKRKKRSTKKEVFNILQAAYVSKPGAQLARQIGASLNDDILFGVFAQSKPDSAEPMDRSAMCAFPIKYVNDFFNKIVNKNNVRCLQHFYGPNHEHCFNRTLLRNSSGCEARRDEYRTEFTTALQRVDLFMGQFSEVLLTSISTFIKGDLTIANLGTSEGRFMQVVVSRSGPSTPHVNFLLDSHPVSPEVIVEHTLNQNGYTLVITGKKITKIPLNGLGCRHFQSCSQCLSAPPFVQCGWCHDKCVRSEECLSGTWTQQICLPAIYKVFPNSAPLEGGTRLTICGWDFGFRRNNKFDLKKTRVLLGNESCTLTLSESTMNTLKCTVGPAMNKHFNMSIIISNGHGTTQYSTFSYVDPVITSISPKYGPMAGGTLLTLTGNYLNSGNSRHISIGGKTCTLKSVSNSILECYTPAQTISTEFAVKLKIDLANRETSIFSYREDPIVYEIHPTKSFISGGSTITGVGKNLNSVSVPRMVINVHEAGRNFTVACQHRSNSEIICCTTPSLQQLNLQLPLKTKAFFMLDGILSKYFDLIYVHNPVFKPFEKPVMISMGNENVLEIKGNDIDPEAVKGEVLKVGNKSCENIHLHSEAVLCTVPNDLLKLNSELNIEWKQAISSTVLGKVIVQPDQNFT
# PROTOCOL_TEXT: SPR (Biacore), c-Met-Fc captured by anti-IgG on CM5, single-cycle kinetics
pKd: −log10 of the molar value. Bridges are numbered along the chain shown (N, C = ends). Roman numbers before positions name the chains, in order. Primed or numbered codes have the meaning given here. Where no end group is shown, it is not given here. [ ]: non-standard residue; d: D form. BMH′ = not defined here

{"BINDER": "{CH2CO}-YRQFNRRTHEVWNLDCGC(Bis‑MAL‑PEG3) (thioether N-16; not fully specified (residue 1); also: dimer: two copies joined by Bis-MAL-PEG3 at Cys18, Two macrocyclic peptides joined through their C-terminal Cys by Bis-MAL-PEG3; also called D4-3 Bis-MAL-PEG3) [D4-3 dimeric peptide, linker Bis-MAL-PEG3]", "pKd": 9.19}
{"BINDER": "D5-4 dimeric peptide, linker Bis-MAL-PEG3 (thioether I:N-I:15, II:N-II:15 via Ac; not fully specified (N-terminus, bridges); also: dimer: two copies joined by Bis-MAL-PEG3 through an added C-terminal Cys (handle not in letters), Two macrocyclic peptides joined through their C-terminal Cys by Bis-MAL-PEG3; also called D5-4 Bis-MAL-PEG3; not shown: C-terminal handle of each copy (spacer residue plus Cys)) peptide 1: [dY]WYYAWDQTYKAFPCG peptide 2: [dY]WYYAWDQTYKAFPCG", "pKd": 8.33}
{"BINDER": "{CH2CO}-YRQFNRRTHEVWNLDCGC(BMH′) (thioether N-16; not fully specified (residue 1); also: dimer: two copies joined by BMH at Cys18, Two macrocyclic peptides joined through their C-terminal Cys by BMH; also called D4-3 BMH) [D4-3 dimeric peptide, linker BMH]", "pKd": 9.35}
